Biological target: MSI2 RRM1 (Homo sapiens, UniProt Q96DH6)
Construct: RNA-recognition motif 1 only (nucleotides 64-270 of NM_138962.2 as printed); GST-RRM1 made in BL21(DE3); for NMR His6-SUMO fusion with tag cleaved
Sequence (Q96DH6 22-104): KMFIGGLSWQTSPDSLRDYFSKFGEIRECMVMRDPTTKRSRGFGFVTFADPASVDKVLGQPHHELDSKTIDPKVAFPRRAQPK
Assay: microscale thermophoresis
Conditions: NT647-labelled protein, pH 7.4, RT
Value Type: pKd
Keep it numeric: pKd is minus log10 of the concentration in mol/L.

Query pKd on MSI2 RRM1 (Homo sapiens, UniProt Q96DH6) for `Cc1cc2nc3c(=O)[nH]c(=O)nc-3n(C)c2cc1C=O`
4.61

====

target: GST-MSI2 (full-length human MSI2) (Homo sapiens, UniProt Q96DH6); construct: full-length, N-terminal GST-Flag tag kept (pGEX6P3), expressed in E. coli BL21(DE3); experiment: fluorescence polarization, RNA-binding inhibition
Value Type: pIC50
Keep it numeric: pIC50 is minus log10 of the concentration in mol/L.

Give the measured pIC50 of `Cc1cc2nc3c(=O)[nH]c(=O)nc-3n(C)c2cc1C=O` .
5.57

====

molecular target: GST-MSI2 (full-length human MSI2) (Homo sapiens, UniProt Q96DH6, K22A); construct: full-length, N-terminal GST-Flag tag kept (pGEX6P3), expressed in E. coli BL21(DE3); test: microscale thermophoresis
Value Type: Kd

Give the measured Kd of Cc1cc2nc3c(=O)[nH]c(=O)nc-3n(C)c2cc1C=O [Ro, Ro 08–2750] .
> 200 µM
